- Measurement target: NaV1.8 (Homo sapiens, UniProt Q9Y5Y9)
- Test description: Activity against NaV 1.8 channel (Table 4)
- Format: cell-based
pIC50: −log10 of the molar value.
Endpoint: pIC50

| Molecular string | Val |
| --- | --- |
| CCCCS(=O)(=O)N1CCN(c2nc(-c3ccccc3O)nc3scc(C)c23)CC1 | < 4.70 |
| Oc1ccccc1-c1nc(N2CCOCC2)c2sc(-c3ccc(F)cc3)cc2n1 | < 4.70 |
| CC(C)COC(=O)NC1CCN(c2nc(-c3ccccc3O)nc3ccsc23)CC1 | > 5.30 |
| Cc1cc(C)c2c(n1)sc1c(N3CCOCC3)nc(-c3ccccc3O)nc12 | < 4.70 |
| Cc1csc2nc(-c3ccccc3O)nc(N3CCN(C(=O)OCC(C)C)CC3)c12 | < 4.70 |
| Cc1csc2nc(-c3ccccc3O)nc(N3CCC(NC(=O)OCC(C)C)CC3)c12 | < 4.70 |
| CC(C)COC(=O)N1CCN(c2nc(-c3ccccc3O)nc3ccsc23)CC1 | > 5.30 |
